Target: T1, soluble human CD3 epsilon chain (human, UniProt P07766 23-126)
T1 construct: also called CD3ε
T1 sequence (P07766 23-126 limits assumed): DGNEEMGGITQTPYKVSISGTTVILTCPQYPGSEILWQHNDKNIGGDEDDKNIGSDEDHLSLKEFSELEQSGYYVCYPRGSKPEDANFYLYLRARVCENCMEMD
Experiment: SPR
Here, each record is paired with measured Kd data.
Value expressed in nM; do not type the unit.

Known Kd results, listed for orientation:
>  <Binder>
TR01H040-E22Hh/none-Hi-Kn010G3/L0233-k0 (antibody, V domains shown, one-arm) VH: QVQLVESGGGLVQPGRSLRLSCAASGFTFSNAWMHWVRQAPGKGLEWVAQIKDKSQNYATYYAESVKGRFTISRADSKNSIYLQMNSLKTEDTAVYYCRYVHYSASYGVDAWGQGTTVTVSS VL: DIVMTQSPLSLPVTPGEPASISCRSSQELVHSNRNTYLHWYQQKPGQAPRLLIYKVSNRFSGVPDRFSGSGSGTDFTLKISRVEAEDVGVYYCGQGTQVPYTFGQGTKLEIK

>  <Kd [nM]>
40.1

$$$$
>  <Binder>
TR01H040-E22Hh/none-Hi-Kn010G3/L0200-k0 (antibody, V domains shown, one-arm) VH: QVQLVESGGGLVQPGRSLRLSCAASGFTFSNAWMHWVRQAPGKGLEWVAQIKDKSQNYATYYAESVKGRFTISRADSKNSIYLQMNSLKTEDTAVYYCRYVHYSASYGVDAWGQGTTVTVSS VL: DIVMTQSPLSLPVTPGEPASISCRPSQSPVHSNRNTYLHWYQQKPGQAPRLLIYKVSNRFSGVPDRFSGSGSGTDFTLKISRVEAEDVGVYYCGQGTQVPYTFGQGTKLEIK

>  <Kd [nM]>
28.7

$$$$

Enquiry: Form field: reported Kd of TR01H081-E22Hh/none-Hi-Kn010G3/L0000-k0 (antibody, V domains shown, one-arm) VH: QVQLVESGGGLVQPGRSLRLSCAASGFTFSNAWMHWVRQAPGKGLEWVAQIKDKSQNYATYYAESVKGRFTISRADSKNSIYLQMNSLKTEDTAVYYCRYVHYAAGYGVDIWGQGTTVTVSS VL: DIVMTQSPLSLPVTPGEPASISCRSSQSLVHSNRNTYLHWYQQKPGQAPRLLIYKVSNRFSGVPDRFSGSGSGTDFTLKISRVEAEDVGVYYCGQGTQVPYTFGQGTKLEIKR
Return: 15.6
